For each of the molecules below, state its IC50.
target: yeast α-glucosidase from Saccharomyces cervisiae (Saccharomyces cerevisiae, UniProt P53341); experiment: biochemical; details: mean ± SD of three independent experiments; pH 6.8, 37 °C; read-out: IC50 (SD) α-Glucosidase
Sequence (P53341 whole entry): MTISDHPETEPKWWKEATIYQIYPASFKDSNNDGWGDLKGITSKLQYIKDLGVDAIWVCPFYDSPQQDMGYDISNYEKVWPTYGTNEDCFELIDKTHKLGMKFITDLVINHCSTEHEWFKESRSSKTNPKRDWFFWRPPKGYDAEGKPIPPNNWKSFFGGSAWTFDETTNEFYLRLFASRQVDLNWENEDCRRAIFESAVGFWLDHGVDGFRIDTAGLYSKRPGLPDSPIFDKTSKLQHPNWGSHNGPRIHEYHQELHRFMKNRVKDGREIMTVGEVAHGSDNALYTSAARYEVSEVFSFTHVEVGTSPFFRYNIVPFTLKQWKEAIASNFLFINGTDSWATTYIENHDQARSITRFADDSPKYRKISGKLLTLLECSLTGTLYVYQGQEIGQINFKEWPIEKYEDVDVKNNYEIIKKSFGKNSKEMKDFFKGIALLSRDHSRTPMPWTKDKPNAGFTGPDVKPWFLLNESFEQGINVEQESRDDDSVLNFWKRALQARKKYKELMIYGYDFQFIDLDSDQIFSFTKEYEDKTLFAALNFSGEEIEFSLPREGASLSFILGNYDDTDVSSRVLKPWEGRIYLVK
Give just the number in µM; leave the unit off.

Ask: Fill in IC50 for record `Nc1ccc(/C=C/c2ccc(F)cc2)cc1C(=O)/C=C/c1cccc(F)c1`
Result: 6.1

Ask: Given the molecule `CC(=O)c1cc(/C=C/c2ccccc2)ccc1N` , write its reported IC50.
Result: 5.4

Ask: Given `Nc1ccc(/C=C/c2ccc(F)cc2)cc1C(=O)/C=C/c1ccc(F)cc1` , respond with its IC50.
Result: 6.9

Ask: Read the entry `Nc1ccc(/C=C/c2ccccc2)cc1C(=O)/C=C/c1ccc(F)cc1` and write its reported IC50.
Result: 5.1

Ask: State, in one line, measured IC50 of `COc1ccc(/C=C/c2ccc(N)c(C(=O)/C=C/c3cccc(F)c3)c2)cc1`
Result: 9.4

====

Please go through the items and note down their IC50.
biological target: α-amylase; assay: α-Amylase inhibition assay (α-Amylase Inhibitor Screening Kit); conditions: mean ± SD of three independent experiments
Numbers only; they are read as µM.

Ask: Answer with reported IC50 of `Nc1ccc(/C=C/c2ccccc2)cc1C(=O)/C=C/c1ccc(F)cc1`
Result: 1.6

Ask: Specify measured IC50 for `Nc1ccc(/C=C/c2ccc(Cl)cc2)cc1C(=O)/C=C/c1cccc(F)c1` .
Result: 2.4

Ask: Check the records and state IC50 for `Nc1ccc(/C=C/c2ccc(Cl)cc2)cc1C(=O)/C=C/c1ccc(F)cc1`
Result: 1.7

Ask: Please list IC50 recorded for the compound `COc1ccc(/C=C/c2ccc(N)c(C(=O)/C=C/c3cccc(F)c3)c2)cc1`
Result: 7

Ask: Please supply the value of reported IC50 for the item `Nc1ccc(/C=C/c2ccc(F)cc2)cc1C(=O)/C=C/c1ccc(F)cc1`
Result: 9.5

Ask: Tell me measured IC50 for `Nc1ccc(/C=C/c2ccccc2)cc1C(=O)/C=C/c1cccc(F)c1` please.
Result: 10.7

Ask: Give the measured IC50 for `COc1ccc(/C=C/c2ccc(N)c(C(C)=O)c2)cc1`
Result: 9

====

Consider the following compounds; for each one, report its IC50.
experiment: DPPH radical scavenging assay; conditions: free radical scavenging; mean ± SD of three independent experiments
Provide the measurement as a number trailed by its unit.

Ask: Note down IC50 recorded for `CC(=O)c1cc(/C=C/c2ccccc2)ccc1N`
Result: 7.1 µM

Ask: Return IC50 for the following compound: `COc1ccc(/C=C/c2ccc(N)c(C(=O)/C=C/c3cccc(F)c3)c2)cc1`
Result: 3.9 µM

Ask: Write down IC50 measured for item `Nc1ccc(/C=C/c2ccc(Cl)cc2)cc1C(=O)/C=C/c1cccc(F)c1`
Result: 15.3 µM

Ask: Tell me IC50 reported for `Nc1ccc(/C=C/c2ccc(F)cc2)cc1C(=O)/C=C/c1cccc(F)c1`
Result: 6.6 µM

====

molecular target: yeast α-glucosidase from Saccharomyces cervisiae (Saccharomyces cerevisiae); test: biochemical
Consider the following compounds; for each one, report its pIC50.
Answer as the number alone; pIC50 is minus log10 of concentration in mol/L.

Ask: Recall the reported pIC50 of COc1ccc(/C=C/c2ccc(N)c(C(=O)/C=C/c3ccc(F)cc3)c2)cc1 [Compound 3h] when tested on yeast α-glucosidase from Saccharomyces cervisiae (Saccharomyces cerevisiae).
Result: 4.98

Ask: Enter measured pIC50, system yeast α-glucosidase from Saccharomyces cervisiae (Saccharomyces cerevisiae), for the compound shown: Nc1ccc(/C=C/c2ccc(Cl)cc2)cc1C(=O)/C=C/c1ccc(F)cc1 [Compound 3g]
Result: 4.72

Ask: // fetch pIC50 for Nc1ccc(/C=C/c2ccccc2)cc1C(=O)/C=C/c1cccc(F)c1 [Compound 3a] ; system: yeast α-glucosidase from Saccharomyces cervisiae (Saccharomyces cerevisiae)
Result: 4.75

Ask: For yeast α-glucosidase from Saccharomyces cervisiae (Saccharomyces cerevisiae), give the measured pIC50 of the entry Nc1ccc(/C=C/c2ccc(Cl)cc2)cc1C(=O)/C=C/c1cccc(F)c1 [Compound 3c]
Result: 4.90

Ask: Provide yeast α-glucosidase from Saccharomyces cervisiae (Saccharomyces cerevisiae) pIC50 reading for COc1ccc(/C=C/c2ccc(N)c(C(C)=O)c2)cc1 [Compound 2d] .
Result: 4.51

Ask: Report pIC50 on yeast α-glucosidase from Saccharomyces cervisiae (Saccharomyces cerevisiae) for this entry: CC(=O)c1cc(/C=C/c2ccc(Cl)cc2)ccc1N [Compound 2c]
Result: 4.80

Ask: Lab note: yeast α-glucosidase from Saccharomyces cervisiae (Saccharomyces cerevisiae) assay, enter pIC50 for CC(=O)c1cc(/C=C/c2ccc(F)cc2)ccc1N [Compound 2b] here
Result: 4.90

====

Assignment: determine reported IC50 at 24 h for the given compounds.
Test system: A549 cells
Assay: MTT cytotoxicity assay on A549 cells
Format: cell-based, human
Conditions: human, A549 cells, 24 h treatment
Method: Metabolic diseases such as diabetes require a stable long-term therapy accompanied by well tolerated and low toxicity, and this encouraged us to evaluate the safety profile of 2a and 3e as potential antidiabetic agents at least in vitro. The compounds were evaluated for cytotoxicity against the normal monkey kidney cells (Vero cells) and the adenocarcinomic human epithelial (A549) cell line using the 3-(4,5-dimethylthiazol-2-yl)-2, 5-diphenyltetrazolium (MTT) assay. […]
Reply numerically in µM, unit not repeated.

Ask: Tell me its IC50 at 24 h given Nc1ccc(/C=C/c2ccccc2)cc1C(=O)/C=C/c1ccc(F)cc1 [Compound 3e] as the entry.
Result: 204

Ask: Please report IC50 at 24 h for the following compound: CC(=O)c1cc(/C=C/c2ccccc2)ccc1N [Compound 2a]
Result: 65.7

====

assay: NO free radical scavenging assay (sodium nitroprusside, Griess reaction); details: mean ± SD of three independent experiments
Property Label: pIC50
The quantity pIC50 is defined as the negative base-10 logarithm of the molar concentration.

Ask: Fill in pIC50 for record `Nc1ccc(/C=C/c2ccccc2)cc1C(=O)/C=C/c1cccc(F)c1`
Result: 4.72

Ask: Give the reported pIC50 for this compound. `Nc1ccc(/C=C/c2ccc(F)cc2)cc1C(=O)/C=C/c1cccc(F)c1`
Result: 5.28

Ask: Provide measured pIC50 value, entry: `COc1ccc(/C=C/c2ccc(N)c(C(=O)/C=C/c3ccc(F)cc3)c2)cc1`
Result: 4.69

Ask: Output measured pIC50 for this item: `COc1ccc(/C=C/c2ccc(N)c(C(C)=O)c2)cc1`
Result: 4.59

====

biological target: UniProtKB P53341
Property Label: pKi
// pKi here means minus log10 of the molar concentration (mol/L)

Ask: Give the observed pKi of Nc1ccc(/C=C/c2ccccc2)cc1C(=O)/C=C/c1ccc(F)cc1 [Compound 3e] for UniProtKB P53341.
Result: 5.83

Ask: Param request: pKi | system UniProtKB P53341 | item CC(=O)c1cc(/C=C/c2ccccc2)ccc1N [Compound 2a]
Result: 6.52

====

Property Label: melting point

Ask: Supply reported melting point belonging to this molecule: `COc1ccc(/C=C/c2ccc(N)c(C(C)=O)c2)cc1`
Result: 139 to 140 °C

Ask: Output measured melting point for this item: `Nc1ccc(/C=C/c2ccc(Cl)cc2)cc1C(=O)/C=C/c1ccc(F)cc1`
Result: 197 to 198 °C

Ask: Supply measured melting point of `COc1ccc(/C=C/c2ccc(N)c(C(=O)/C=C/c3ccc(F)cc3)c2)cc1` in your reply.
Result: 153 to 154 °C

Ask: Supply measured melting point of `Nc1ccc(/C=C/c2ccccc2)cc1C(=O)/C=C/c1ccc(F)cc1` in your reply.
Result: 161 to 162 °C

Ask: For the molecule `Nc1ccc(/C=C/c2ccc(F)cc2)cc1C(=O)/C=C/c1cccc(F)c1` , report melting point.
Result: 175 to 177 °C

Ask: Specify melting point for `CC(=O)c1cc(/C=C/c2ccc(F)cc2)ccc1N` and stop.
Result: 149 to 150 °C

Ask: Look up and report measured melting point for this entry: `Nc1ccc(/C=C/c2ccc(Cl)cc2)cc1C(=O)/C=C/c1cccc(F)c1`
Result: 187 to 188 °C

Ask: Complete the entry with melting point for `CC(=O)c1cc(/C=C/c2ccccc2)ccc1N`
Result: 119 to 120 °C

Ask: For `Nc1ccc(/C=C/c2ccccc2)cc1C(=O)/C=C/c1cccc(F)c1` , write its melting point.
Result: 129 to 130 °C

Ask: Return reported melting point. Input molecule: `CC(=O)c1cc(/C=C/c2ccc(Cl)cc2)ccc1N`
Result: 137 to 138 °C

====

Answer each item with its documented IC50.
Test: NO free radical scavenging assay (sodium nitroprusside, Griess reaction)
Details: mean ± SD of three independent experiments
Procedure: Reduced or lack of antioxidant activity of these compounds was attributed to the presence of intramolecular N-H···O hydrogen bond between amino and kenone group of the 2-aminochalcones and their sulfanamido derivatives which is envisaged to deactivate the unsaturated moiety. […] Nitric oxide was generated from sodium nitroprusside and measured by Griess’ reaction following the literature method. […] Five absorbance readings were recorded at 546 nm using Varioskan flash microplate spectrophotometer reader.
Record the result as a number with its unit.

Ask: Please report the measured IC50 for `Nc1ccc(/C=C/c2ccccc2)cc1C(=O)/C=C/c1ccc(F)cc1`
Result: 20.5 µM

Ask: Report IC50, nothing else, for this molecule: `Nc1ccc(/C=C/c2ccc(Cl)cc2)cc1C(=O)/C=C/c1cccc(F)c1`
Result: 10.6 µM

Ask: Give reported IC50 value for `COc1ccc(/C=C/c2ccc(N)c(C(=O)/C=C/c3cccc(F)c3)c2)cc1`
Result: 7.9 µM

Ask: Supply IC50 value. Item: `CC(=O)c1cc(/C=C/c2ccc(Cl)cc2)ccc1N`
Result: 11.6 µM

Ask: State its IC50 for this molecule: O=C1O[C@H]([C@@H](O)CO)C(O)=C1O [Ascorbic acid, reference compound]
Result: 6.14 µM

Ask: Output measured IC50 for this item: `CC(=O)c1cc(/C=C/c2ccccc2)ccc1N`
Result: 8.3 µM

Ask: Give IC50 for `Nc1ccc(/C=C/c2ccc(F)cc2)cc1C(=O)/C=C/c1ccc(F)cc1`
Result: 8.8 µM

Ask: Give recorded IC50. `CC(=O)c1cc(/C=C/c2ccc(F)cc2)ccc1N`
Result: 7.2 µM

Ask: Supply reported IC50 belonging to this molecule: `Nc1ccc(/C=C/c2ccc(Cl)cc2)cc1C(=O)/C=C/c1ccc(F)cc1`
Result: 15.1 µM
